target: hFASN enzyme (full length) (Homo sapiens); construct: 10 μL hFASN enzyme (full length, 300 ng, purified in house); made in house; test: Fatty Acid Synthase (FASN) inhibition scintillation proximity assay; format: biochemical; conditions: read-out: Human FASN pIC50 (converted)
Parameter: IC50 (nM)

See these solved cases before continuing.
# Record Smiles, IC50 (nM)
measured = [
    ("O=C(C1CC1)N1CC[C@@H](CN2C(=O)C3(CCOCC3)N=C2c2ccc(-c3ccc4occc4c3)cc2)C1", 155),
    ("O=C(C1CC1)N1CC[C@@H](CN2C(=O)C3(CCCC3)N=C2c2ccc(-c3ccc4[nH]cnc4c3)cc2F)C1", 33.9),
]

I = Cc1cc2cc(-c3ccc(C4=NC5(CC5)C(=O)N4CC4CN(C(=O)C5CC5)C4)cc3C)ccc2o1
II = COC(=O)N1CC2(C1)N=C(c1ccc(-c3ccc4cccnc4c3)cc1)N(C[C@@H]1CCN(C(=O)C3CC3)C1)C2=O
Which has the higher IC50, I or II ? Please indicate the selected item by its label.
I
(I: 6310 nM, II: 64.6 nM)

---

Molecular target: hFASN enzyme (full length) (Homo sapiens, UniProt P49327)
Construct: 10 μL hFASN enzyme (full length, 300 ng, purified in house); made in house
Sequence (P49327 whole entry): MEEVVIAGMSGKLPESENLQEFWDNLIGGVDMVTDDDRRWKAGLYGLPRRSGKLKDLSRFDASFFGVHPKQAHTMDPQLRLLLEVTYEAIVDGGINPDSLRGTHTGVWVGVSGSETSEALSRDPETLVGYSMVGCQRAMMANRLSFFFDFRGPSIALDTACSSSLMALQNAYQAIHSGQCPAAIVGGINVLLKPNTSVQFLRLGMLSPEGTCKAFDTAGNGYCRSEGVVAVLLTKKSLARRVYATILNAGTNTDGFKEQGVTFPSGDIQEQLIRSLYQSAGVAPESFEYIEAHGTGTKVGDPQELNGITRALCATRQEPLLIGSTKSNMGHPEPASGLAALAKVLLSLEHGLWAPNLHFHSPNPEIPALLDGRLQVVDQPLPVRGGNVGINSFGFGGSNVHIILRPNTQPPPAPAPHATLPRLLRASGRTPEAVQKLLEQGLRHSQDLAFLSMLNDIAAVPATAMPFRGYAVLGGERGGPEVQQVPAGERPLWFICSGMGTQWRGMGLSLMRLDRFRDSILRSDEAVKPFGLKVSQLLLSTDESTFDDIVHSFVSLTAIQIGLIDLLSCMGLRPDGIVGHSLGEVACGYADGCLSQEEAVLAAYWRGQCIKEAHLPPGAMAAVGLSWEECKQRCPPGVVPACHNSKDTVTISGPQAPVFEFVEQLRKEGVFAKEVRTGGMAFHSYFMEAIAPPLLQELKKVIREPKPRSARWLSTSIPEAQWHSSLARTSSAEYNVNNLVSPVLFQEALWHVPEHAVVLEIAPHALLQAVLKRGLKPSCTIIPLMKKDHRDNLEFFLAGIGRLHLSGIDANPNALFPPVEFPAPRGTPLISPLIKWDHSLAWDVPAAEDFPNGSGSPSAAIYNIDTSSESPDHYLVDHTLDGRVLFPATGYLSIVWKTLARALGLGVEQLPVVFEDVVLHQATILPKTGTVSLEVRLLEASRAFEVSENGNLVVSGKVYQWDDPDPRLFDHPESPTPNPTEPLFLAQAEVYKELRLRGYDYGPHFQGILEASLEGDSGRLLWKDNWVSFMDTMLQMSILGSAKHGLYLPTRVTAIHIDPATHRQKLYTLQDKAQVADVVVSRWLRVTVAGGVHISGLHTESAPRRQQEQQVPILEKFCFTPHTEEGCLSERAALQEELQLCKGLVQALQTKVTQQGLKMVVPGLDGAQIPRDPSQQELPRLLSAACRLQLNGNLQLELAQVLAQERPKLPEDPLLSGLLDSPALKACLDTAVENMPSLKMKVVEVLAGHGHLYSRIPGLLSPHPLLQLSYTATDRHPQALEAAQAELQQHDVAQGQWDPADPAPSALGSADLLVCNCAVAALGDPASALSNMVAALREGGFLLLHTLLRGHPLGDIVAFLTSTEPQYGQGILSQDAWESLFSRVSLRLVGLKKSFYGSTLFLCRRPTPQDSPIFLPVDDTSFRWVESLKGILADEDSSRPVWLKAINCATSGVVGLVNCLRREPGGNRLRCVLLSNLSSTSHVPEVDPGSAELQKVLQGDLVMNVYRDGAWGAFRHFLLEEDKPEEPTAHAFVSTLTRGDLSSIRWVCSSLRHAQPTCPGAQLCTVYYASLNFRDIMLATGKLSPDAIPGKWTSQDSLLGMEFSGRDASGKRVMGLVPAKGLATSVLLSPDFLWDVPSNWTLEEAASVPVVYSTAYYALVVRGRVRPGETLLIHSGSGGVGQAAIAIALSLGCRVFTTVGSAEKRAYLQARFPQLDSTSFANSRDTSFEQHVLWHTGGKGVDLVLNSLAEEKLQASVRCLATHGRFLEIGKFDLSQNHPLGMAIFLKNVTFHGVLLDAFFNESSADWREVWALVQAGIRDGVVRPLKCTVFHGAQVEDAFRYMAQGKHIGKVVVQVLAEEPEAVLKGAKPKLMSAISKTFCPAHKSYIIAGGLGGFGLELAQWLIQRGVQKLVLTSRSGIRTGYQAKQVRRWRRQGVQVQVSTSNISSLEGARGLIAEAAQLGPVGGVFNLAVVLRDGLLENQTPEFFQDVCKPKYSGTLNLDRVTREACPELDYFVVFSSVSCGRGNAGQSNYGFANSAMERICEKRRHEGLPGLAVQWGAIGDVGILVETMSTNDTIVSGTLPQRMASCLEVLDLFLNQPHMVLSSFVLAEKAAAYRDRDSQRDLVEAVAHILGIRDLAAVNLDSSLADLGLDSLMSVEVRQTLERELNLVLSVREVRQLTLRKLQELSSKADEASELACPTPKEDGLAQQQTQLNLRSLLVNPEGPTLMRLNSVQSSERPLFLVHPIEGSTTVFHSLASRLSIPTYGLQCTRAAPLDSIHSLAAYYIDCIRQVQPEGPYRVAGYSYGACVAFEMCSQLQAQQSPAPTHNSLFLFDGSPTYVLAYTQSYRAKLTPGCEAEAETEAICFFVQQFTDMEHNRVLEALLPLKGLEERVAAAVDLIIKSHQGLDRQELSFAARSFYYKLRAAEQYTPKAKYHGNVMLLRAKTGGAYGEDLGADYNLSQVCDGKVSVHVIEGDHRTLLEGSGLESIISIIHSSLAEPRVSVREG
Test: Fatty Acid Synthase (FASN) inhibition scintillation proximity assay
Assay type: biochemical
Settings: read-out: Human FASN % inhibition @ 10 μM, 10 μM test compound
Experimental: In this assay, inhibition of FASN activity is measured using ^3H-acetyl-CoA and malonyl-CoA as substrates. ^3H-Acetyl CoA is converted to ^3H-palmitate through a series of reactions by the FASN protein, which contains 7 functional domains and carries out 7 enzymatic reactions to ultimately produce ^3H-palmitate. The assay principle is based upon the fact that ^3H-acetyl-CoA is hydrophilic and the end product, ^3H-palmitate is hydrophobic. […]
Parameter: inhibition at 10 µM (%)

# Compound, inhibition at 10 µM [%]
data = [
    ("COCCN1CCC2(CC1)N=C(c1ccc(-c3ccc4c(cnn4C)c3)cc1)N(C[C@@H]1CCN(C(=O)C3CC3)C1)C2=O [compound 750]", 94),
    ("O=C(c1nccs1)N1CCC(CN2C(=O)C3(CCOC3)N=C2c2ccc(-c3ccc4occc4c3)cc2)C1 (stereo not shown) [compound 934]", 27),
    ("Cn1nc2ccc(-c3ccc(C4=NC5(CC5)C(=O)N4C[C@@H]4CCN(C(=O)C5CC5)C4)cc3)cc2c1CO [compound 487]", 81),
]

P = Cc1cc2cc(-c3ccc(C4=NC5(CC5)C(=O)N4CC4CN(C(=O)C5CC5)C4)c(F)c3)ccc2n1C [compound 569]
Q = COC(=O)N1CC[C@@H](CN2C(=O)C3(CCOC3)N=C2c2ccc(-c3ccc4c(cnn4C)c3)cc2)C1 (stereo partly shown) [compound 915]
API: POST /compare with P and Q ; response names the item with higher inhibition at 10 µM. To answer, give the label that identifies your chosen option.
P

A = O=C(C1CC1)N1CC(CN2C(=O)C3(CC3)N=C2c2ccc(-c3ccc4occc4c3)c(F)c2)C1 [compound 415]
B = Cc1cc(-c2cccc(S(C)(=O)=O)c2)ccc1C1=NC2(CC2)C(=O)N1C[C@@H]1CCN(C(=O)C2CC2)C1 [compound 633]
C = COC(=O)N1CC[C@@H](CN2C(=O)C3(CCOC3)N=C2c2ccc(-c3ccc4occc4c3)cc2)C1 (stereo partly shown) [compound 954]
D = CS(=O)(=O)N1CC(CN2C(=O)C3(CCOC3)N=C2c2ccc(-c3ccc4cccnc4c3)cc2)C1 (stereo not shown) [compound 942]
E = CC(C)(O)c1ccc(-c2ccc(C3=NC4(CC4)C(=O)N3CC3CN(C(=O)C4CC4)C3)cc2)nc1 [compound 794]
// smallest inhibition at 10 µM at index 0, largest at the end Order the labels as requested and list them.
E, D, C, B, A
(E: -15%, D: 11%, C: 27%, B: 56%, A: 80%)
